assay: Toxicity liver stage against HepG2, at 10uM; format: cell-based; set-up: test concentration 10 uM, cell line HepG2-A16-CD81EGFP; conditions: human, HepG2-A16-CD81EGFP cells; read-out: INHIBITION
Could you please report measured cytotoxicity at 10 µM for the items listed next?
Give bare numbers, in %.

Some compounds with recorded cytotoxicity at 10 µM:
# lookup: cytotoxicity at 10 µM of CN(Cc1ccccc1)c1ccc(C(F)(F)F)cn1
10.2

# lookup: cytotoxicity at 10 µM of CCCNC(=O)C(C)n1cc(Br)cn1 (stereo unspecified)
-19.7

# lookup: cytotoxicity at 10 µM of Nc1ccnc(N2CCC(c3nccn3CC3CC3)CC2)n1
-0.0638

State the recorded cytotoxicity at 10 µM for every item in the following list.
1. N#Cc1cccc(CN2CCn3cc(CNC(=O)C4CCC4)nc3C2)c1
2. CN1CCN(c2cc(CNC(=O)c3ccc(=O)n(C)c3)ccn2)CC1
3. Cn1nc(Br)c2c(NCCNc3ncccn3)ncnc21

1. 14
2. -6.95
3. 11.3

---

Could you please report measured cytotoxicity at 10 µM for the items listed next?
experiment: Toxicity liver stage against HepG2, at 10uM; type: cell-based; design: test concentration 10 uM, cell line HepG2-A16-CD81EGFP; conditions: human, HepG2-A16-CD81EGFP cells; read-out: INHIBITION
Numbers only, in %.

# lookup: cytotoxicity at 10 µM of Fc1cccc(-c2c[nH]c([C@@H]3COCCN3C3CCOCC3)n2)c1
-1.31

State the recorded cytotoxicity at 10 µM for every item in the following list.
1. CN1CCc2nc3cc(C(=O)NCc4cccs4)ccc3c(=O)n2CC1
2. CN(C)C[C@@H]1C[C@@H]2CN(c3ncc(F)cn3)CC[C@@H]2N1C
3. Cc1cccc(NC(=O)c2nn(C3CCS(=O)(=O)C3)c3c2CCCC3)n1 (configuration not stated)
4. O=C(COCc1nc(-c2ccncc2)no1)N1CCCCC1
5. O=C(NCc1ccc(-n2cncn2)nc1)c1cc(Cl)c2c(c1)OCCO2
6. c1cc(-c2c[nH]nc2C2CCCCC2)nc(N2CCCCCC2)n1
7. O=C1O[C@@H]2CN(Cc3cccc(O)c3)C[C@@H]2N1CCCN1CCOCC1
8. Cc1noc(C)c1CN1C[C@H]2CNC[C@H]2C1

1: 0.207; 2: 4.53; 3: 10.5; 4: 5.4; 5: -16.5; 6: 8.07; 7: 0.476; 8: 6.62

State the recorded cytotoxicity at 10 µM for every item in the following list.
1. CCN(Cc1cc(F)c(OC)c(Cl)c1)Cc1noc(CC(C)C)n1
2. CN1CCN(C2CCN(C(=O)CCC3CCCC3)CC2)CC1
3. COc1ccc(-c2noc([C@@H]3C[C@@H](O)CN3C3CCOCC3)n2)cc1
4. CCOc1cccc(CNc2cccc(C(=O)OC)c2)c1O
5. CC(c1nc(C(C)(C)C)no1)N1CCN(C(=O)CN2CCOCC2)CC1 (configuration not stated)
6. c1cc2c(cc1CN1CC[C@H]3CO[C@H](CN4CCCC4)[C@H]3C1)OCO2
7. CCN1CCN(C[C@@H]2CN(Cc3cnc(C(C)C)nc3)C[C@@H]2CO)CC1

[-2.84, 6.35, -1.7, 7.36, -3.51, 0.355, -6.79]

State the recorded cytotoxicity at 10 µM for every item in the following list.
1. O=C(CN1C(=O)c2ccccc2C1=O)N1CCOC2(CCOCC2)C1
2. CC(NCCn1cccn1)c1ccccc1F (configuration not stated)
3. Cc1cccc(CN2CCn3c(C(=O)N(C)C)cnc3C2)c1
4. Cc1nc(CN(Cc2ccncc2)C2CCN(C)CC2)cs1
5. Cc1cc(C(O)CCNC(=O)c2ccc(Cl)s2)c(C)o1 (configuration not stated)
6. O=C(COCCOc1ccccc1)NC1CCN(c2ncccn2)CC1
7. COCCOCC(=O)NCc1ccc(N(C)C)nc1
8. OCCCN(CCc1cccc(F)c1)C1CC1

-5.15
-3.21
-69.5
-2.56
-1.22
-4.9
8.87
-8.9

State the recorded cytotoxicity at 10 µM for every item in the following list.
1. CCOc1ccc(NC(C)=O)cc1S(=O)(=O)Nc1nccs1
2. Cc1ncc2c(n1)CN(Cc1nc(-c3cccs3)no1)CC2
3. Cc1cccc(CN2CCC23CCCNC3)n1 (configuration not stated)
4. CCCn1c(C)c(CC(=O)NCC(N)=O)c2c1CC(C)(C)CC2=O

1: -8.2; 2: -9.8; 3: 2.55; 4: 2.03

State the recorded cytotoxicity at 10 µM for every item in the following list.
1. Cc1nc(C)n(CC2CCCN2Cc2ncc(-c3ccccc3)o2)n1 (configuration not stated)
2. NCCc1c(-c2ccc(F)cc2)[nH][nH]c1=O

1: -4.92; 2: -1.3

State the recorded cytotoxicity at 10 µM for every item in the following list.
1. OC1(CNCCc2nc3c(s2)CCCC3)CNCCOC1 (configuration not stated)
2. COCC(O)CN(C)C(=O)NC1CCN(Cc2ccccn2)CC1 (configuration not stated)
3. CC1NC(=O)COC12CCN(C(=O)Cc1ccsc1)CC2 (configuration not stated)
4. CS(=O)(=O)N1C[C@H]2CCCN(Cc3cccs3)[C@H]2C1
5. CCC(CO)NCc1ccc(-c2ccc(F)c(Cl)c2)o1 (configuration not stated)
6. CC(C)CNC(=O)c1cccc(Oc2ccc3nncn3n2)c1
7. CCn1nc(C)c(CN2CCNCC2)c1C

1: 17.4; 2: -0.0353; 3: -5.73; 4: 7.69; 5: 5.24; 6: -1.95; 7: 6.4

State the recorded cytotoxicity at 10 µM for every item in the following list.
1. O=C1COc2ccc(S(=O)(=O)NCc3ccccc3)c3c2N1CCC3
2. Cc1n[nH]c(C)c1CNCC(O)c1ccc(F)c(F)c1 (configuration not stated)
3. CN(C)[C@@H]1CN(C(=O)Cc2ccccc2)[C@@H]2CCCO[C@H]12
4. CC1CN(c2cc(CNCc3cccc4c3OCCO4)ccn2)CCO1 (configuration not stated)
5. O=C(NCCC1COc2ccccc2O1)c1ccc(-c2cn[nH]c2)nc1 (configuration not stated)
6. CCc1ncc2c(n1)CN(Cc1nc(-c3ccoc3)no1)CC2
7. COc1nc2ccccc2cc1CN1CCCC(CNC(C)=O)C1 (configuration not stated)

1. -7.48
2. 4.32
3. 3.31
4. 3.96
5. 4.65
6. 1.61
7. 1.9

State the recorded cytotoxicity at 10 µM for every item in the following list.
1. CC(C)(C)CCCC(=O)NS(=O)(=O)CC1CC1
2. Cc1oc(-c2ccsc2)nc1CC(=O)NCCS(C)(=O)=O
3. CC(Cc1c(F)cccc1F)NC(=O)NCc1ncnn1C (configuration not stated)

[-6.19, -8.6, 12.9]
